# STUDY SYSTEM: T1, thermolysin-cleaved EBOV GP on Jurkat-GP cells (cleaved GP) (Zaire ebolavirus, Makona (GP1 core …, strain))
# T1 chain 1: not shown
# T1 chain 2: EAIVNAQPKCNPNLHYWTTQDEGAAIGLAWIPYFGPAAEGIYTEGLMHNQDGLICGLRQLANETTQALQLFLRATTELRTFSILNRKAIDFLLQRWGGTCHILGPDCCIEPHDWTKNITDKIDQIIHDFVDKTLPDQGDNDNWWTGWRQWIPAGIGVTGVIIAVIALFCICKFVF

# BINDER, binding result
data = [
    ("5.6.c2712 (antibody, V domains shown) VH: QVQLQESGPGLVKPSETLSLTCSVSGGSISSDYWSWIRQPPGKGLEWIGYIYYDGSTNFNPSLKSRVTISVDTSKNQLSLKLSSVTAADTAVYYCARVRRWIELGTGLGDWFDPWGQGTLVTVSS VL: SSELTQDPAVSVALGQTVRITCQGDSLRSYYASWHQLKPGQAPVVVIYGIHNRPSGIPDRFSGSSSGNTASLTITGAQAEDEADYYCSSRDSSGNHLVFGGGTKLTVL", "binds"),
    ("5.6.c4515 (antibody, V domains shown) VH: QVQLVESGGDVVQPGRSLRLSCAASGFIFSTYGMHWVRQTPGKGLEWVAVLYYDGRNGYYADSVKGRFTISRDNSKNTLYLQMNSLRAEDTAVYYCARDGCSSTDCLLYYYAMDVWGQGTTVTVSS VL: QSALTQPPSASGSPGQSVTISCTGTSSDVGAYNYVSWYQQHPGKGPKLMIYEVNQRPSGVPGRFSGSKSGNTASLTVSGLQTEDEADYFCSSYAGSNTVVFGGGTKLTVL", "binds"),
    ("5.6.c2609 (antibody, V domains shown) VH: QVQLVESGGGVVQPGRSLRLSCAASGIAFSNYAMHWVRQAPGKGLEWVALISSDARDQYYADSVKGRFTISRDNSKSTLYLEMNSLTSEDTAIYYCASDTSSHYSSLLYNWFDSWGQGSLVTVSS VL: DIQMTQSPSSLSASVGDRVTITCRAIQSISTFLNWYQHKPGKAPKVLIYGASNLQSGVPSRFSGSGSGTDFTLTISSLQPEDFATYYCQQSYNTPFTFGPGTKVDIK", "binds"),
]

Data origin: paper PMC6908968
